# System: ADCK4
# Run conditions: concentration: 1 μM, replicates: in singlicate; n = 1
Experimental endpoint: %Inh (%)
Numeric answer only, unit % assumed.

Find the measured %Inh: item "Cn1cncc1-c1ccc2ncnc(Nc3ccc(OCc4ccccc4)cc3)c2c1" , target or system ADCK4.
15

Tell me reported %Inh for "COc1cc2nccc(Nc3ccc(NC(=O)c4ccc(C)cc4)c(O)c3)c2cc1OC.Cl" , tested with ADCK4.
41

So what %Inh did "Cc1cc(N2Cc3ccccc3C2)nc(Nc2ccc(S(=O)(=O)N3CCOCC3)cc2)n1.Cl" get with ADCK4?
8

Report %Inh for "C[C@@H]1CCCCN1c1cc(-c2ccc3c(N)n[nH]c3c2)nc(N)n1" tested on ADCK4.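 Further: KINOMEscan kinase panel screen.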
20
